Target protein (sequence): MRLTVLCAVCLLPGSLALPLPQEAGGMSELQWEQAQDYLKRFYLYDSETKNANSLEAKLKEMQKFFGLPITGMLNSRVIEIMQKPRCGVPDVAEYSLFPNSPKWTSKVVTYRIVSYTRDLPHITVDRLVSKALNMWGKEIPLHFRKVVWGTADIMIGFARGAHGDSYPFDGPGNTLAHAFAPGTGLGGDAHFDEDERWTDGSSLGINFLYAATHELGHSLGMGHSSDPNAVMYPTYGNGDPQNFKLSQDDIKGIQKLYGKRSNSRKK
Value Kind: Ki (nM)

NC(=O)CNC(=O)[C@@H]1CCCCNC(=O)OCCC[C@H](C(=O)NO)[C@@H](Cc2ccc(-c3ccccc3C(F)(F)F)cc2)C(=O)N1 ... 1340
